Molecular target: human plasma kallikrein (Homo sapiens (Human))
Sequence (P03952 391-638): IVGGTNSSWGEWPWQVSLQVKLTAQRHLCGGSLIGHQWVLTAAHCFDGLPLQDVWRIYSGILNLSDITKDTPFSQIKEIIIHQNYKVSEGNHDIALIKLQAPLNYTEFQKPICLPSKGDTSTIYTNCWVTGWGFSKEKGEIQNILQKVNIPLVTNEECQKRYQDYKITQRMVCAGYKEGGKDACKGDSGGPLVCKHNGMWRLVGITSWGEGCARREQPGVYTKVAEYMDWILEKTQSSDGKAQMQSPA
Sequence (P03952 20-390 partner): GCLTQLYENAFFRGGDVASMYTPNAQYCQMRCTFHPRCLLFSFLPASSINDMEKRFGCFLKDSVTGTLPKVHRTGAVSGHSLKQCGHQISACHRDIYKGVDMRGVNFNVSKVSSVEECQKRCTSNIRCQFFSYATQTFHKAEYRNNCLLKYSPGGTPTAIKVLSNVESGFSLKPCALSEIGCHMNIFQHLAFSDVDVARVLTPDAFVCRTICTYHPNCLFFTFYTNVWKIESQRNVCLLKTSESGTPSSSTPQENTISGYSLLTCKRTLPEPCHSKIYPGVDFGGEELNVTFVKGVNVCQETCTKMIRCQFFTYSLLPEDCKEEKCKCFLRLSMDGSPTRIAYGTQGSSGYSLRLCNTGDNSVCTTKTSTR
Assay: In vitro enzyme inhibition of human plasma kallikrein (PFR-AMC cleavage)
Settings: Pro-Phe-Arg-AMC substrate, 37° C., read-out: hPK IC50
reported-endpoint: IC50

> print(dat)
                           structure.smiles       result
1  Cc1cc(CN)nc(C)c1CNC(=O)c1ccnc(Cc2ccc3ncc(C(F)(F)F)cc3c2)c1     < 0.1 µM
2  O=C(NCc1n[nH]c2ccc(Cl)cc12)c1ccnc(Cc2ccc3ncc(N4CCOCC4)cc3c2)c1   1 to 10 µM
3  Cc1cc(C(C)(C)O)nc(C)c1CNC(=O)c1ccnc(Cc2ccc3ncc(C(F)(F)F)cc3c2)c1      > 10 µM
4  Cc1nc2c(cc1CNC(=O)c1ccnc(Cc3ccc4ncc(C(F)(F)F)cc4c3)c1)CCN2  0.1 to 1 µM

====

A collection of molecules and their measured IC50
Target: human plasma kallikrein (Homo sapiens (Human))
Test: In vitro enzyme inhibition of human plasma kallikrein (PFR-AMC cleavage)
Settings: Pro-Phe-Arg-AMC substrate, 37° C., read-out: hPK IC50
reported-endpoint: IC50

> print(dat)
                                    molecule  reported.endpoint            result
 1  Cc1cc(N)nc(C)c1CNC(=O)c1cc(C#N)nc(Cc2ccc3ncc(Cl)cc3c2)c1 [Example 207]               IC50          < 100 nM
 2  O=C(NCc1n[nH]c2ccc(Cl)cc12)c1ccnc(Cc2ccc3ncc(C(F)(F)F)cc3c2)c1 [Example 233]               IC50          < 100 nM
 3  Cc1cnc2c(C(C)(C)O)cc(Cc3cc(C(=O)NCc4c(C)cc(N)nc4C)ccn3)cc2c1 [Example 318]               IC50          < 100 nM
 4  Nc1nccc2cc(CNC(=O)c3ccnc(Cc4ccc5ncc(Cl)cc5c4)c3)c(F)cc12 [Example 180]               IC50          < 100 nM
 5  Cc1c(CNC(=O)c2ccnc(Cc3ccc4ncc(C(F)(F)F)cc4c3)c2)ccc2c(N)nccc12 [Example 184]               IC50          < 100 nM
 6  Cc1nc2ccc(Cc3cc(C(=O)NCc4ccc(N)nc4C)ccn3)cc2cc1Cl [Example 239]               IC50          < 100 nM
 7  Cc1nc(N)cc(C#N)c1CNC(=O)c1ccnc(Cc2ccc3ncc(Cl)cc3c2)c1 [Example 167]               IC50        > 10000 nM
 8  Cc1ccn2c(C(F)(F)F)nc(CNC(=O)c3ccnc(Cc4ccc5ncc(Cl)cc5c4)c3)c2c1 [Example 160]               IC50        > 10000 nM
 9  COC(c1ccc2ncc(Cl)cc2c1)c1cc(C(=O)NCc2c(C)cc(N)nc2C)ccn1 (stereo not drawn) [Example 296]               IC50          < 100 nM
10  Cc1cc(N)nc(C)c1CNC(=O)c1ccnc(C(=O)c2ccc3ncc(Cl)cc3c2)c1 [Example 274]               IC50    100 to 1000 nM
11  CCc1cnc2ccc(Cc3cc(C(=O)NCc4c(C)cc(N)nc4C)ccn3)cc2c1 [Example 286]               IC50          < 100 nM
12  Nc1nccc2cc(CNC(=O)c3ccnc(Cc4ccc5ncc(N6CCOCC6)cc5c4)c3)ccc12 [Example 293]               IC50  1000 to 10000 nM
13  Nc1cnc2ccc(Cc3cc(C(=O)NCc4cc5c(Cl)c[nH]c5cc4F)ccn3)cc2c1 [Example 297]               IC50    100 to 1000 nM
14  O=C(NCc1cc2c(Cl)c[nH]c2cc1F)c1ccnc(Cc2ccc3ncc(C4CC4)cc3c2)c1 [Example 245]               IC50          < 100 nM
15  COc1cc(N)nc(C)c1CNC(=O)c1ccnc(Cc2ccc3ncc(Cl)cc3c2)c1 [Example 166]               IC50        > 10000 nM

Just for reference, patent US10023557B2 is where these values come from.
